tested on: MOLT-13; test: cells; format: functional, cell-based; settings: Homo sapiens;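 also: IC50 for suppression of MOLT-13 cell growth, read out with a cell viability assay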
Description: SANGER: Inhibition of human MOLT-13 cell growth in a cell viability assay.
pIC50: −log10 of the molar value.
measured quantity: pIC50

chemical structure | reading
CC1=C(/C=C/C(C)=C/C=C/C(C)=C/C(=O)O)C(C)(C)CCC1 | 5.94
CN(NC(=O)CC(=O)NN(C)C(=S)c1ccccc1)C(=S)c1ccccc1 | < 6.70
NC1(c2ccc(-c3nc4ccn5c(=O)[nH]nc5c4cc3-c3ccccc3)cc2)CCC1 | < 5.40
Cc1cc(N2CCOCC2)cc2[nH]c(-c3c(NC[C@@H](O)c4cccc(Cl)c4)cc[nH]c3=O)nc12 | < 5.29

====

We begin with a simple list: items and their reported IC50.
test system: HCC1954; test: cells; assay type: functional, cell-based; conditions: Homo sapiens
Description: SANGER: Inhibition of human HCC1954 cell growth in a cell viability assay.

chemical structure | IC50
O=C(NCCCNc1nc(Nc2cccc(NC(=O)N3CCCC3)c2)ncc1I)c1cccs1 | > 5 µM
NC(=O)Nc1cc(-c2cccc(F)c2)sc1C(=O)N[C@H]1CCCNC1 | > 2 µM
Cc1ccc(-n2nc(C(C)(C)C)cc2NC(=O)Nc2ccc(OCCN3CCOCC3)c3ccccc23)cc1 | > 10 µM
Cc1ccc(C(=O)Nc2ccc(CN3CCN(C)CC3)c(C(F)(F)F)c2)cc1C#Cc1cnc2cccnn12 | > 0.512 µM
NC1(c2ccc(-c3nc4ccn5c(=O)[nH]nc5c4cc3-c3ccccc3)cc2)CCC1 | > 4 µM

====

system: MIA PaCa-2; assay: cells; type: functional, cell-based; settings: Homo sapiens
Description: SANGER: Inhibition of human MIA-PaCa-2 cell growth in a cell viability assay.
pIC50: −log10 of the molar value.

compound | pIC50
CS(=O)(=O)N1CCN(Cc2cc3nc(-c4cccc5[nH]ncc45)nc(N4CCOCC4)c3s2)CC1 [PICTILISIB] | < 5.40
C/C(=C\c1csc(C)n1)[C@@H]1C[C@@H]2O[C@]2(C)CCC[C@H](C)[C@H](O)[C@@H](C)C(=O)C(C)(C)[C@@H](O)CC(=O)O1 [PATUPILONE] | 8.88
NC1(c2ccc(-c3nc4ccn5c(=O)[nH]nc5c4cc3-c3ccccc3)cc2)CCC1 [MK-2206] | < 5.40
COC(=O)[C@H](CCSC)NC(=O)c1ccc(NC[C@@H](N)CS)cc1-c1ccccc1 | < 5.99
COc1ccc(-c2cc3nccn3c(Nc3ncccc3C(N)=O)n2)cc1OC | 5.27
O=C1NC(=O)c2c1c(-c1ccccc1Cl)cc1[nH]c3ccc(O)cc3c21 | < 5.70

====

system: MV4-11; test: cells; format: functional, cell-based, Homo sapiens, MV-4-11; conditions: Homo sapiens, MV4-11;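 also: cell viability readout measuring growth inhibition of human MV-4-11 cells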
Description: SANGER: Inhibition of human MV-4-11 cell growth in a cell viability assay.
pIC50: −log10 of the molar value.
measured quantity: pIC50

compound | measured quantity | limit sign | reading
CC1(C)CCC(c2ccc(Cl)cc2)=C(CN2CCN(c3ccc(C(=O)NS(=O)(=O)c4ccc(N[C@H](CCN5CCOCC5)CSc5ccccc5)c(S(=O)(=O)C(F)(F)F)c4)cc3)CC2)C1 [NAVITOCLAX] | pIC50 | = | 7.80
Cc1cc(N2CCOCC2)cc2[nH]c(-c3c(NC[C@@H](O)c4cccc(Cl)c4)cc[nH]c3=O)nc12 | pIC50 | = | 6.69
NC(=O)c1cccc(-c2cc(Nc3ccc(OC(F)(F)F)cc3)ncn2)c1 | pIC50 | < | 5.89
COc1ccc(N(C(=O)Oc2c(C)cccc2C)c2ccnc(Nc3ccc(N4CCN(C)CC4)cc3)n2)c(OC)c1 | pIC50 | < | 5.29
